Tested on: U2OS
Test: drug sensitivity score (DSS) for viability; higher = more toxic; extreme values may be limits of the assay
Details: 72 h
Readout: drug sensitivity score

For orientation, consider the following solved cases.
Compound	drug sensitivity score
Cn1ncc2c(N3CCOCC3)nc(-c3cccc(O)c3)nc21	5.5
Cc1nc(-c2ccc(OCC(C)C)c(C#N)c2)sc1C(=O)O	0
Oc1cc2c(cc1O)[C@H](Cc1cccc3ccccc13)NCC2	0
C#Cc1cnc2nc(O)n(C(CC)CC)c2n1	0
Cc1nc[nH]c1CCN	0
CC(C)NCC(O)COc1ccc(COCCOC(C)C)cc1 (stereo not given)	0
C#CCN(C)[C@H](C)Cc1ccccc1	0
CCC[C@@H](NC(=O)N1C(=O)C(CC)(CC)[C@@H]1Oc1ccc(C(=O)N2CCN(C)CC2)cc1)c1ccc2c(c1)OCO2	0.1

I need drug sensitivity score for every entry listed below, if you could help.
1. CC(=O)N(c1onc(C)c1C)S(=O)(=O)c1ccc(N)cc1
2. CO[C@@H]1COCC[C@@H]1N[C@@H]1CC[C@@](C(=O)N2CCc3ncc(C(F)(F)F)cc3C2)(C(C)C)C1
3. CCCCc1ccc(O)cc1O
4. O=c1[nH]c(CCl)nc2sc3c(c12)CCCC3
5. CN/C(=N\CCSCc1nc[nH]c1C)NC#N
6. CNc1nc(NCc2ccc(NS(C)(=O)=O)cc2Cl)cc(-c2ccccn2)n1

## Result
1: 0; 2: 0; 3: 0; 4: 0.5; 5: 0; 6: 0.6

Working through the 4 compounds below one at a time, give drug sensitivity score for each.
1. Oc1ccc2c3c1O[C@H]1c4oc5ccccc5c4C[C@@]4(O)[C@@H](C2)N(CC2CC2)CC[C@]314
2. CNC(=O)O[C@H]1COc2ccc(N3CCN(C4COC4)CC3)cc2[C@@H]1NC(=O)c1ccc(F)cc1
3. O=[N+]([O-])c1cccc2cn[nH]c12
4. C[C@H](NC(=O)CNC(=O)c1cccc(Cl)c1)c1ccccc1

## Result
1: 0; 2: 0; 3: 0; 4: 0

For every item below, please supply its drug sensitivity score.
1. O=C1Nc2ccc(Cl)c3c2C1(CCCCN1CC=C(c2ccc(Cl)cc2)CC1)CCC3 (stereo not given)
2. NC(=O)c1cccc(N)c1 [3-amino-benzamide]

## Result
[6.2, 0]

====

System: Caco-2
Experiment: drug sensitivity score (DSS) for viability; higher = more toxic; extreme values may be limits of the assay
Conditions: 72 h
Readout: drug sensitivity score
Answers are plain numbers.

Compound	Target under test	drug sensitivity score
Cc1nc[nH]c1CCN	Caco-2	0
O=C(c1c(O)nc2cc(Cl)ccc2c1O)C1CC1	Caco-2	0
NS(=O)(=O)c1ccc(-n2nc(C(F)(F)F)cc2-c2ccc(Cl)cc2)cc1	Caco-2	0.7
[N-]=[N+]=N[C@]1(CO)O[C@@H](n2ccc(N)nc2=O)[C@H](O)[C@@H]1O	Caco-2	0
CCOC1O[C@H]([C@@H](COCc2ccccc2)OCc2ccccc2)[C@H](OCc2ccccc2)[C@H]1O (stereo not given in full) [tribenoside]	Caco-2	0

Working through the 5 compounds below one at a time, give drug sensitivity score for each.
1. Cn1c(C#N)ccc1-c1ccc2c(c1)C(C)(C)OC(=S)N2
2. O=C1C(O)=C(O)C(=O)C(O)=C1O
3. Cc1cccc(COc2cccc(/C=C3\C(=O)NN(c4ccccc4)C3=O)c2)c1
4. CC(=O)[C@H]1CC[C@H]2[C@@H]3C[C@H](C)C4=CC(=O)CC[C@]4(C)[C@H]3[C@@H](O)C[C@]12C
5. O=c1[nH]c2ccccc2c(=O)n1CCCN1CCN(c2ccccc2)CC1

## Result
[1.7, 0, 0, 0, 0]
